# measured_target: T1, TIAM2, Q8IVF5
# T1 sequence (Q8IVF5 885-986, limits assumed, looked up): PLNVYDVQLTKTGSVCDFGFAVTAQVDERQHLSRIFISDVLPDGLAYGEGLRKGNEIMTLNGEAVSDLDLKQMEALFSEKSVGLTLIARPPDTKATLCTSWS
# assay_procedure: holdup assay
# Design: key: below the threshold = too weak to quantify, mostly under pKd 3.1 to 4
# cond: plain residues with an end cap or a label only (N-terminal biotin on a linker: ado-ado)
property_measured: pKd

Reference set, count: 5
1. ARGPPRESEV [FAM110D, Q8TAY7] | below the threshold
2. EDLEDEWEVI [TECPR2, O15040] | 3.98
3. DPAESMESLV [PTPRG, P23470] | below the threshold
4. ARSAAASNYV [CLDN4, O14493] | below the threshold
5. DDASLPVSDV [PLEKHA1, Q9HB21] | below the threshold

The binder identified as SRSVVESDEL [MYPN, Q86TC9] registered its pKd at below the threshold

Data point: RFQQRMQTHV [KIRREL1, Q96J84] ; pKd = 3.97

The binder identified as TNSRHGETTV [FZD2, Q14332] registered its pKd at below the threshold
